target: T1, human DLL4, full length, overexpressed on CHO or HEK293 cells (human, UniProt Q9NR61 27-685); experiment: periplasmic extract; FMAT, Notch1/Fc on CHO-hDLL4
T1 construct: also called CHO-hDLL4; CHO-hDII4
Quick reference for % inhibition among some binders
# number only, unit % dropped from output

# count of solved cases: 3
binder	propertyLabel	recordedNumber
DLLBII104G01 (VHH, also called 104G1; DLLBII104G1; not shown: C-terminal c-myc and His6 tags) VHH: EVQLVESGGGLVQAGGSLRLSCAASGFTFDDYAIGWFRQAPGKEREGVSCISSSDGSTYYADSVKGRFTISSDNAKNTVYLQMNSLKPEDTAVYYCATAWCDSSWYRSFVGYWGQGTQVTVSS	% inhibition	94
DLLBII83G01 (VHH, also called DLLBII83G1; not shown: C-terminal c-myc and His6 tags) VHH: EVQLVESGGGLVQAGGSLRLSCAASGRTFSNYIMGWFRQAPGKEREFVAGISRYADYTGYADSVKGRFTISRDNVKNTVYLRMNSLKPDDTAVYYCAANEGYCSGYGCYEDSGQYDYWGQGTQVTVSS	% inhibition	87
DLLBII107C03 (VHH, also called DLLBII107C3; not shown: C-terminal c-myc and His6 tags) VHH: EVQLVESGGGLVQPGGSLRLSCEVSGSIGSVSDMRWYRQAPGLQYELVARITSGSITDYSDSVKGRFTISRDNAKNTVYLQMNSLKPEDTAVYYCNADVQHSAWLKPLTYWGQGTQVTVSS	% inhibition	75

Here is the next item to consider.
Look at this binder and give its reported % inhibition. DLLBII115A05 (VHH, also called 115A5; DLLBII115A5; not shown: C-terminal c-myc and His6 tags) VHH: EVQLVESGGGLVQPGGSLRLSCAASGFTFGSYDMSWVRRSPGKGPEWVSSINSGGGSTYYADFVKGRFTISRDNAKNTLYLQMNSLKPEDTAVYYCAADRYIRARQGDYWGAYEYDYWGQGTQVTVSS
74
